tgt: Apelin receptor (Homo sapiens) (UniProt P35414)
Sequence (P35414 whole entry, looked up): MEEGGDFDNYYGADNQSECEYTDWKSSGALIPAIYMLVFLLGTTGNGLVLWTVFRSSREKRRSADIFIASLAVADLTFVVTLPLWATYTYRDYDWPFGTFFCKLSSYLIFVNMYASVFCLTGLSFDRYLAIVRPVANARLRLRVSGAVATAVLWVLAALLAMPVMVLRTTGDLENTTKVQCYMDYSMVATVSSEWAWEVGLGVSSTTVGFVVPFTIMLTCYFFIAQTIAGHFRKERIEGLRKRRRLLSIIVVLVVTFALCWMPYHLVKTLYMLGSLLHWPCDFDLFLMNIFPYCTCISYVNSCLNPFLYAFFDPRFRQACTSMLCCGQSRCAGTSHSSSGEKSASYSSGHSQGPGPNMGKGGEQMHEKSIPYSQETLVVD
assay_remarks: apelin receptor activator analogs – cell-based, luminescence, SAR follow-up (AID 488811)
condition_label: CHO-K1 AGTRL-1 PathHunter beta-arrestin
Activity calls are given as the source filed them.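 How the source made its calls: active means mean EC50 below 10 µM; inactive means the rest.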
Please state which outcome applies, choosing from label 1 = active, label 0 = inactive

Field: example entries. Status: answers known.
CC1=CC(=NOS(=O)(=O)c2ccccc2)C=C(C)C1=O	label 1
CCCSc1nc(O)c(CC)c(=O)n1C(C)CC (configuration not stated)	label 0

Name the outcome recorded for CC1=C/C(=N\OS(=O)(=O)c2ccc(C)cc2)C(C)=CC1=O in the assay. label 1

Each compound tested received a call. Report the one for O=S(=O)(Nc1nc(-c2ccccc2)cs1)c1ccc(Cl)cc1 . label 0

What did this assay record as the result for CC1=CC(=NOS(=O)(=O)c2ccccc2)C=CC1=O ? label 0

# outcome recorded in this test, key = COc1ccc(S(=O)(=O)O/N=C2\C=C(C(C)C)C(=O)C=C2C)cc1 label 1

What was the test verdict on CCc1c(O)n(C2CCCCC2)c(=S)[nH]c1=O ? label 0

Reference source for all entries: PubChem BioAssay AID488811
